Listed here: items and their measured log10(EC50).
- MEASURED_ON: human GR (Homo sapiens, UniProt P04150)
- Construct: naturally expresses the human GR; endogenous in cells
- METHOD: Trans-activation modulation of glucocorticoid receptor (GRAMMER), MMTV-LUC reporter in A549 cells
- Format: cell-based
- STATED_CONDITIONS: A549 cells; IP = inflection point; read-out: Transactivation A549 Cells Grammer IP
Response schema: value (number) is log10 of EC50 in units of nM.

For the compound shown here, OCc1ccccc1CC[C@]1(O)CCC2=Cc3c(cnn3-c3ccc(F)cc3)C[C@@]21C1CC1 [Example 2] , give the reported log10(EC50). 1.34

For COc1ccnc(CC[C@]2(O)CCC3=Cc4c(cnn4-c4ccc(F)cc4)C[C@@]32C2CC2)c1C(N)=O [Example 54] , what is its reported log10(EC50)? 1.54

For the compound shown here, CC[C@]12Cc3cnn(-c4ccc(F)cc4)c3C=C1CC[C@@]2(O)CCc1ncccc1S(C)(=O)=O [Example 80] , give the reported log10(EC50). 1.75

Reported log10(EC50), compound CC[C@]12Cc3cnn(-c4ccc(F)cc4)c3C=C1CC[C@@]2(O)CCc1ncccc1S(=O)(=O)C(C)C [Example 62] : ____ 1.54

----------
Form field: pKi (one value per entry).
- MEASURED_ON: glucocorticoid receptor (Homo sapiens)
- Construct: endogenous in cells
- Sequence (P04150 1-777): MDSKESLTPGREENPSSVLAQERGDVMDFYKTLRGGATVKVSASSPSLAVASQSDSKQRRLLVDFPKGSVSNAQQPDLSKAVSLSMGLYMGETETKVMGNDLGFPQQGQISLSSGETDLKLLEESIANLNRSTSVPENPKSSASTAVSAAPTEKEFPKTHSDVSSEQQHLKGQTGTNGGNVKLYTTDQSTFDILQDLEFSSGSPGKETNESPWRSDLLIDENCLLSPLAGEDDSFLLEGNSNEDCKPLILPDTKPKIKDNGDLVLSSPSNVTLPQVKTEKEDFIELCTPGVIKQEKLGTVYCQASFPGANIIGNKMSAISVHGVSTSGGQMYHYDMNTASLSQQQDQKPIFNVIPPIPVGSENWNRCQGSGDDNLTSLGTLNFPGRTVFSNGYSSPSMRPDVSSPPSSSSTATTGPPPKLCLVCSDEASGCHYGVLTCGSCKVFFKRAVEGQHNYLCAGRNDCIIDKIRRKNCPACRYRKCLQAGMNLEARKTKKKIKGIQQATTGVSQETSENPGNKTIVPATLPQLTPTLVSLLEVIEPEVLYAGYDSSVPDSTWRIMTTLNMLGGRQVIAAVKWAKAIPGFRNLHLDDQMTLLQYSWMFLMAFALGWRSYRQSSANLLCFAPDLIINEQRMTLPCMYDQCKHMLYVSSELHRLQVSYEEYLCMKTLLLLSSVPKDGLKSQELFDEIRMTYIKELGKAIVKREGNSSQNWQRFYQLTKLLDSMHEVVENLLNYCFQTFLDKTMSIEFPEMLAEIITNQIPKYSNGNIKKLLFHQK
- METHOD: Ligand binding assay (GRBind), 3H-dexamethasone displacement in HeLa cell lysate
- STATED_CONDITIONS: 3H-DEX tracer
Here pKi is given on a logarithmic scale as minus log10 of the concentration in mol/L.

Worked cases, pKi given:
Reported pKi for CS(=O)(=O)c1ccccc1CC[C@]1(O)CCC2=Cc3c(cnn3-c3ccc(F)cc3)C[C@@]21C1CC1 : what is it? 9.06

# pKi lookup, item CC[C@]12Cc3cnn(-c4ccc(F)cc4)c3C=C1CC[C@@]2(O)CC1OC(=O)c2ccccc21 (stereo partly shown) 8.53

Others:
Would you kindly share the measured pKi for CC[C@]12Cc3cnn(-c4cccc(F)c4)c3C=C1CC[C@@]2(O)CCc1ccccc1C(N)=O ? 8.49

What value of measured pKi is listed for NC(=O)c1c(C(F)(F)F)ccnc1CC[C@]1(O)CCC2=Cc3c(cnn3-c3ccc(F)cc3)C[C@@]21C1CC1 ? 8.65

Name the reported pKi value associated with the compound NC(=O)C(O)c1ccccc1CC[C@]1(O)CCC2=Cc3c(cnn3-c3ccc(F)cc3)C[C@@]21C1CC1 (single isomer, unassigned) [Example 3a] 8.74

# lookup: pKi of NC(=O)c1cc(F)ccc1CC[C@]1(O)CCC2=Cc3c(cnn3-c3ccc(F)cc3)C[C@@]21C1CC1 8.70

Item CC[C@]12Cc3cnn(-c4ccc(F)cc4)c3C=C1CC[C@@]2(O)CCc1cc(C)ccn1 has what recorded pKi? 8.63
